B1: Hairpin Ribozyme (parent)
chain: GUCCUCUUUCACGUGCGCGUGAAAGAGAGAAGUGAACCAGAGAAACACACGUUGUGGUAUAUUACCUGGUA

variants of: B1; test: self-cleavage, relative activity (ratio to wild type); higher = more cleavage; co-transcriptional
Measured property: self-cleavage

Here is how some variants turned out for self-cleavage.
GUCCUCUUUCACGUCCGAGUGAAAGAGAGAAGUGAACCAGAGAAACACACGUUGUGGUAUAUUACCUGGUA : 1.18
GUCCUCUUUCACGUGCGCGUGAAAGAGAGAAGUUAACCAGAGAAAAACACGUUGUGGUAUAUUACCUGGUA : 0.239
GUCCUCUUUCAUGUGCGCGUGAAAGAGAGAAGUGAAACAGAGAAACACACGUUGUGGUAUAUUACCUGGUA : 0.282

Recorded result, GUCCUCUUUCACGUGCGCGUGAAAGCGAGAAGUGAACCAGAGAAACACACGAUGUGGUAUAUUACCUGGUA , self-cleavage: 0.599

Briefly, self-cleavage measured for GUCCUCUUUCACGUGCUCGUGAAAGAGAUAAGUGAACCAGAGAAACACACGUUGUGGUAUAUUACCUGGUA : 0.128

Noted for GUCCCCUUUCACGUGCGCGUGAAAGAAAGAAGUGAACCAGAGAAACACACGUUGUGGUAUAUUACCUGGUA : its self-cleavage reads 0.247

self-cleavage for GUCCUCUUUCACGUGCGCGUGAAAGAGAGAAGUGAACUAGCGAAACACACGUUGUGGUAUAUUACCUGGUA is 0.619

Lookup result for GUCCUCUUUCACGUGCGCGUGAAAGAGAGAAAUGAACCAGAGAAACACACGUUGUGAUAUAUUACCUGGUA ; measured self-cleavage: 0.0905

Given item GUCGUCUUUCACGUGCGCGUGAAAGAGAGAAGUGAACCAGAGAAACACACGUCGUGGUAUAUUACCUGGUA , the value recorded as its self-cleavage is 0.264

Briefly, self-cleavage measured for GUCCUCUUUCACGUGCGCGUGAAAGAGAGAAGUGAACCAGAAAAACACACGGUGUGGUAUAUUACCUGGUA : 0.0884

Lab book: self-cleavage of GUCCUCUUUCACGUGCGCGUGAAAGAGAGAAGUGAACCAGAGAAACACACGUUGUGGUAUAUUACCAUGUA noted as 0.128
